Biological target: MAGI1_2, Q96QZ7
Sequence (Q96QZ7 456-580): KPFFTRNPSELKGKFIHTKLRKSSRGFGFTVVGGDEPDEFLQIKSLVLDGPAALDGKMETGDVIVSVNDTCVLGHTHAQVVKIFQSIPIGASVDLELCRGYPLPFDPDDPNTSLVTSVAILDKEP
Experiment: holdup assay
Design: key: below the threshold = too weak to quantify, mostly under pKd 3.1 to 4
Conditions: plain residues with an end cap or a label only (N-terminal biotin on a linker: ahx)

{"columns": ["binder", "pKd"],
 "data": [
  ["QPRTWLQSPV [RTKN, Q9BST9]", 4.83],
  ["APSRKLNTEI [TIAM1, Q13009]", "below the threshold"],
  ["TESNLQTSSC [CGN, Q9P2M7]", "below the threshold"],
  ["QDEKVKESYV [ABCA1, O95477]", 4.03],
  ["TQKFRASTAL [FRMPD1, Q5SYB0]", 4.97],
  ["HTHSYIETHV [CNKSR2, Q8WXI2]", 3.9],
  ["EKQAKGDTEF [CACYBP, Q9HB71]", "below the threshold"],
  ["TEAKLTETNA [MYO18A, Q92614]", "below the threshold"],
  ["QNTDDVQTSF [ACE2, Q9BYF1]", "below the threshold"]
]}
